These measurements were taken from patent USRE39282E1.

# Tested on: HIV-1 isolates
# assayOverview: plaque-reduction assay with HT4-6C cell monolayers, HIV isolates from untreated and treated individuals
# Type: cell-based
# measurementSetup: Human immunodeficiency virus 1, read-out: Zidovudine Sensitivity (ID50 μM), HIV isolate A036C; 11 months of therapy; RT Y215; Table 3
observable: IC50 (µM)
Answers are plain numbers, in µM.

So what's the measured IC50 for this one? "Cc1cn([C@H]2C[C@H](N=[N+]=[N-])[C@@H](CO)O2)c(=O)[nH]c1=O"
0.67

====

# System: HIV-1 isolates
# assayOverview: plaque-reduction assay with HT4-6C cell monolayers, HIV isolates from untreated and treated individuals
# Assay type: cell-based
# measurementSetup: Human immunodeficiency virus 1, read-out: ZIDOVUDINE SENSITIVITY (ID50 μM), HIV isolate A012D; 26 months of therapy; RT 67 Asn, 70 Arg, 215 Phe, 219 Gln
observable: IC50
For clarity, give the value followed by its unit.

So what's the measured IC50 for this one? "Cc1cn([C@H]2C[C@H](N=[N+]=[N-])[C@@H](CO)O2)c(=O)[nH]c1=O"
2 µM

====

# Test system: HIV-1 isolates
# assayOverview: plaque-reduction assay with HT4-6C cell monolayers, HIV isolates from untreated and treated individuals
# Type: cell-based
# measurementSetup: Human immunodeficiency virus 1, read-out: ZIDOVUDINE SENSITIVITY (Mean ID50, μM), HIV isolate A012D; Table 2
observable: IC50 (µM)
Give bare numbers, in µM.

So what's the measured IC50 for this one? "Cc1cn([C@H]2C[C@H](N=[N+]=[N-])[C@@H](CO)O2)c(=O)[nH]c1=O"
2.56

====

# Test system: HIV-1 isolates
# assayOverview: plaque-reduction assay with HT4-6C cell monolayers, HIV isolates from untreated and treated individuals
# Format: cell-based
# measurementSetup: Human immunodeficiency virus 1, read-out: Zidovudine Sensitivity (ID50 μM), HIV isolate A036D; 20 months of therapy; RT N67 R70 Y215; Table 3
observable: IC50 (µM)
Numbers only, in µM.

So what's the measured IC50 for this one? "Cc1cn([C@H]2C[C@H](N=[N+]=[N-])[C@@H](CO)O2)c(=O)[nH]c1=O"
5.6
